Data origin: the supplement of paper PMC10307832

test system: A549; test: relative viability (nuclei count vs DMSO), 5 days (fraction); higher = more cells survive; conditions: first compound 0.03162 µM
Field: relative viability. Provide a value for each of the compounds that follow.

Here is how some compounds turned out for relative viability.
>>> value_measured("NC(=O)Nc1cc(-c2cccc(F)c2)sc1C(=O)N[C@H]1CCCNC1 [AZD7762] + Nc1ncn([C@H]2C[C@H](O)[C@@H](CO)O2)c(=O)n1 [Decitabine] (partner 2 µM)")
0.252
>>> value_measured("NC(=O)Nc1cc(-c2cccc(F)c2)sc1C(=O)N[C@H]1CCCNC1 [AZD7762] + C[C@@H](Oc1cc(-c2cnn(C3CCNCC3)c2)cnc1N)c1c(Cl)ccc(F)c1Cl [Crizotinib] (partner 1 µM)")
0.821
>>> value_measured("NC(=O)Nc1cc(-c2cccc(F)c2)sc1C(=O)N[C@H]1CCCNC1 [AZD7762] + N=C(N)NC(=N)NCCc1ccccc1 [Phenformin] (partner 250 µM)")
0.183

Note: attention shifts to another entry.
What does the record list as relative viability for NC(=O)Nc1cc(-c2cccc(F)c2)sc1C(=O)N[C@H]1CCCNC1 [AZD7762] + CS(=O)(=O)N1CCN(Cc2cc3nc(-c4cccc5[nH]ncc45)nc(N4CCOCC4)c3s2)CC1 [Pictilisib] (partner 1 µM) ? 0.587
